Origin of measurements: patent US8178506B2

Tested on: T47D cells
protocol.notes: Cell cycle assay in T47D cells
Assay type: cell-based, human
run.conditions: 150 nM, 48 hours, relative to untreated control
In the oligonucleotide strings, read from the 5' end, every base follows the letter of its sugar. An asterisk marks phosphorothioate; unmarked linkages are phosphodiester. Other units and linkages are bracketed, terminal groups are in braces. A string of capitals states the bases alone. e = 2'-O-(2-methoxyethyl) (MOE); [5mC] = 5-methylcytosine; d = 2'-deoxy (DNA)
Measured % cells in cell cycle phase aneuploid, listed per entry for reference.
The reply should contain only the number, in %.

substance	value.kind	reading.unit	quantitative.result
327902 (antisense eG*eG*e[5mC]*eT*eG*eT*e[5mC]*eA*eA*eT*eT*e[5mC]*eA*eT*eA*eG*eG*eT*e[5mC]*eA*eG) [compound 327902]	% cells in cell cycle phase aneuploid	%	162

Checklist item: % cells in cell cycle phase aneuploid tested on T47D cells, entry 328744 (antisense e[5mC]*eG*eG*eA*eT*d[5mC]*d[5mC]*dT*dG*dT*dT*dA*d[5mC]*d[5mC]*dT*e[5mC]*eA*e[5mC]*e[5mC]*eA) [compound 328744] , value?
191

Checklist item: % cells in cell cycle phase aneuploid tested on T47D cells, entry 25691 (antisense eG*e[5mC]*e[5mC]*eA*eA*dG*dG*d[5mC]*dG*dT*dG*dA*d[5mC]*dA*dT*eG*eA*eT*eA*eT) [compound 25691] , value?
203

Checklist item: % cells in cell cycle phase aneuploid tested on T47D cells, entry 328403 (antisense eA*eG*eG*e[5mC]*e[5mC]*dT*dA*dT*dT*d[5mC]*d[5mC]*dT*dG*dT*dA*eG*e[5mC]*eA*eA*eA) [compound 328403] , value?
175

Checklist item: % cells in cell cycle phase aneuploid tested on T47D cells, entry 25690 (antisense eA*eT*e[5mC]*e[5mC]*e[5mC]*dT*dT*dT*d[5mC]*dT*dT*d[5mC]*d[5mC]*dG*d[5mC]*eA*eT*eG*eT*eG) [compound 25690] , value?
140

Checklist item: % cells in cell cycle phase aneuploid tested on T47D cells, entry 327905 (antisense e[5mC]*eA*eG*eA*e[5mC]*eT*e[5mC]*e[5mC]*eG*eG*eT*eG*eG*eA*eA*eT*eG*eA*eA*eG*eG*eA) [compound 327905] , value?
164

Checklist item: % cells in cell cycle phase aneuploid tested on T47D cells, entry 328759 (antisense eG*eA*eG*eG*eG*dA*dT*dT*dG*dT*dA*dT*dG*dA*dA*e[5mC]*eA*eT*e[5mC]*eT) [compound 328759] , value?
223

Checklist item: % cells in cell cycle phase aneuploid tested on T47D cells, entry 328687 (eG*e[5mC]*eT*eT*e[5mC]*d[5mC]*d[5mC]*dA*dG*d[5mC]*dG*dG*d[5mC]*d[5mC]*dT*eA*eT*eA*eG*eT; antisense) [compound 328687] , value?
169

###

System: HuVECs
protocol.notes: Endothelial tube formation assay in HuVECs
run.conditions: 75 nM oligomeric compound, Table 59
In the oligonucleotide strings, read from the 5' end, every base follows the letter of its sugar. An asterisk marks phosphorothioate; unmarked linkages are phosphodiester. Other units and linkages are bracketed, terminal groups are in braces. A string of capitals states the bases alone. e = 2'-O-(2-methoxyethyl) (MOE); [5mC] = 5-methylcytosine
Measured % Activity Relative to UTC (tube formation), listed per entry for reference.
The reply should contain only the number, in %.

substance	assayed.system	quantitative.result
327961 (antisense eG*eG*eG*eG*eT*eA*eT*eT*eT*eG*eA*e[5mC]*eA*eA*eA*e[5mC]*eT*eG*eA*e[5mC]*eA) [compound 327961]	HuVECs	53.3
327948 (antisense eG*e[5mC]*eT*eG*eA*eG*eT*eG*eT*eA*eG*eG*eA*eT*eG*eT*eT*eT*eA*e[5mC]*eA) [compound 327948]	HuVECs	33.3
327966 (antisense eA*eT*e[5mC]*e[5mC]*eA*eA*eT*e[5mC]*eA*eG*eT*eT*e[5mC]*e[5mC]*eT*eG*eA*eT*eG*e[5mC]*eA*eG*eT*eA) [compound 327966]	HuVECs	40.0
327967 (antisense eA*e[5mC]*eT*eG*eT*eA*e[5mC]*eA*eA*eA*e[5mC]*eT*eA*e[5mC]*eT*eA*e[5mC]*e[5mC]*eT*e[5mC]*eA) [compound 327967]	HuVECs	93.3

Now let's try a different one.
Item under review: 327962 (antisense eG*e[5mC]*eT*eG*eA*eG*eA*eG*eT*eG*eT*eA*eG*eG*eA*eT*eG*eT*eT*eT*eA*e[5mC]*eA) [compound 327962] . Reported % Activity Relative to UTC (tube formation)?
53.3

###

Measured % cells in cell cycle phase: G2/M, listed per entry for reference.
Test system: A549 cells
protocol.notes: Cell cycle assay in A549 cells
Type: cell-based, human
run.conditions: A549 cells, 100 nM, 24 hours; relative to the untreated control cells in that phase
Just the number plus its unit, please.

Item under review: 338836 (antisense TCCTCGGTGGCAGAGCTCAG; all 2'-MOE, all phosphorothioate, methylation of C not given here) [compound 338836] . Reported % cells in cell cycle phase: G2/M?
116%

Item under review: 340350 (antisense TGCTCAATAAATACCCGTTGAA; all 2'-MOE, all phosphorothioate, methylation of C not given here) [compound 340350] . Reported % cells in cell cycle phase: G2/M?
155%

Item under review: 338637 (antisense TCAGAGCGGAGAGACACAAG; all 2'-MOE, all phosphorothioate, methylation of C not given here) [compound 338637] . Reported % cells in cell cycle phase: G2/M?
115%

Item under review: 338769 (antisense GCTTCCCAGCGGCCTATAGT; all 2'-MOE, all phosphorothioate, methylation of C not given here) [compound 338769] . Reported % cells in cell cycle phase: G2/M?
113%

###

System: PPARγ
protocol.notes: PPARγ mRNA expression in adipocytes (real-time PCR)
Assay type: cell-based, human
run.conditions: differentiating adipocytes transfected with oligomeric compound; Table 75
In the oligonucleotide strings, read from the 5' end, every base follows the letter of its sugar. An asterisk marks phosphorothioate; unmarked linkages are phosphodiester. Other units and linkages are bracketed, terminal groups are in braces. A string of capitals states the bases alone. e = 2'-O-(2-methoxyethyl) (MOE); [5mC] = 5-methylcytosine
value.kind: PPAR gamma mRNA

Illustrative cases are given below, each with its answer.
substance	assayed.system	result
327902 (antisense eG*eG*e[5mC]*eT*eG*eT*e[5mC]*eA*eA*eT*eT*e[5mC]*eA*eT*eA*eG*eG*eT*e[5mC]*eA*eG) [compound 327902]	PPARγ	56 percentage of untreated control (UTC)
327910 (antisense eT*eG*eA*eT*eA*eG*e[5mC]*e[5mC]*e[5mC]*eT*eG*eT*eA*e[5mC]*eA*eA*eT*eG*e[5mC]*eT*eG*e[5mC]*eT) [compound 327910]	PPARγ	39 percentage of untreated control (UTC)
346688 (UAGUUGGCAAGUCUAGAACCA; all 2'-MOE, all phosphorothioate, methylation of C and T or U not given here) [compound 346688]	PPARγ	55 percentage of untreated control (UTC)
327940 (antisense eG*eA*eA*e[5mC]*eA*eG*eG*eT*eA*eG*eT*e[5mC]*eT*eG*eA*eA*e[5mC]*eA*e[5mC]*eT*eG*eG*eG) [compound 327940]	PPARγ	64 percentage of untreated control (UTC)
341806 (antisense GCCAATATTTCTGTGCTGCTA; all 2'-MOE, all phosphorothioate, methylation of C not given here) [compound 341806]	PPARγ	70 percentage of untreated control (UTC)
341796 (antisense UCAUACAGCUAGAUAACCAAAGA; all 2'-MOE, all phosphorothioate, methylation of C and T or U not given here) [compound 341796]	PPARγ	66 percentage of untreated control (UTC)

Item under review: 327918 (antisense e[5mC]*eT*eA*eG*eT*eA*e[5mC]*eA*eT*e[5mC]*eA*eT*e[5mC]*eT*eA*eT*eA*e[5mC]*eT*eG*eT*eA) [compound 327918] . Reported PPAR gamma mRNA?
74 percentage of untreated control (UTC)

Item under review: 327879 (antisense eA*eA*e[5mC]*eA*eA*eA*eA*eT*e[5mC]*eA*e[5mC]*eT*eA*eG*eT*e[5mC]*eT*eT*e[5mC]*e[5mC]*eA) [compound 327879] . Reported PPAR gamma mRNA?
81 percentage of untreated control (UTC)

Item under review: 327916 (antisense eT*eG*eG*e[5mC]*eA*eT*eT*e[5mC]*eA*e[5mC]*e[5mC]*eG*e[5mC]*eG*eT*eG*e[5mC]*e[5mC]*eT*eT*eA*eA) [compound 327916] . Reported PPAR gamma mRNA?
71 percentage of untreated control (UTC)

Item under review: 327957 (antisense e[5mC]*eA*e[5mC]*eA*eA*eG*eT*eT*e[5mC]*eG*eG*eA*eT*e[5mC]*eT*eA*e[5mC]*eG*eG*eG*eT*eT) [compound 327957] . Reported PPAR gamma mRNA?
68 percentage of untreated control (UTC)
